Data credit: patent US20100184802A1

- TESTED ON: P2X7 receptor (IL-1β release from THP-1 cells) (Homo sapiens, UniProt Q99572)
- Construct: host or cells: THP-1 cells differentiated with LPS and IFN-γ
- Sequence (Q99572 1-595): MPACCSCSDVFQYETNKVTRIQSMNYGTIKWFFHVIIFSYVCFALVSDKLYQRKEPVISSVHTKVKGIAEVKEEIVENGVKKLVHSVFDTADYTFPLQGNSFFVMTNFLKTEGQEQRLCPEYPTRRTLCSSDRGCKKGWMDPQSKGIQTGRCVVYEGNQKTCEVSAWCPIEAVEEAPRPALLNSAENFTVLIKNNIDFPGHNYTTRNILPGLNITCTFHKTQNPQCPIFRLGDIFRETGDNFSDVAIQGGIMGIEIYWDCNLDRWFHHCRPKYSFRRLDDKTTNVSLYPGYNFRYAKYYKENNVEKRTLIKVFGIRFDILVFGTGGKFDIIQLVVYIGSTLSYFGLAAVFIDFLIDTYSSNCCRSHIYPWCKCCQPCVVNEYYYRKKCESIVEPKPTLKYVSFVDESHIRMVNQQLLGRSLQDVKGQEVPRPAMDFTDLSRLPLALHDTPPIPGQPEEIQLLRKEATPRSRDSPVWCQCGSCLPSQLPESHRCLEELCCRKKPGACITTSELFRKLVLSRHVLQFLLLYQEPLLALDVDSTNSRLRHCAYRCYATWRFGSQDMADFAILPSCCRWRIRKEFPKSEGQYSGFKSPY
- TEST: IL-1β release assay in differentiated THP-1 cells stimulated with BzATP (Example 9)
- Format: cell-based
- SETTINGS: 0.3 μM concentration, BzATP 250 uM, read-out: IL-1β % Inhib. @ 0.3 or 0.1 μM
VALUE TYPE: inhibition at 0.3 µM

P2X7 receptor (IL-1β release from THP-1 cells) (Homo sapiens, UniProt Q99572) / inhibition at 0.3 µM / CC(C)[C@H](C(=O)O)n1ccc2c(NC(=O)CC3CCCCCC3)cccc2c1=O [Compound 610] : value?
> 76%

P2X7 receptor (IL-1β release from THP-1 cells) (Homo sapiens, UniProt Q99572) / inhibition at 0.3 µM / NC(=O)Cn1ccc2c(NC(=O)CC3(O)CCCCCC3)cccc2c1=O [Compound 562] : value?
26 to 50%

P2X7 receptor (IL-1β release from THP-1 cells) (Homo sapiens, UniProt Q99572) / inhibition at 0.3 µM / CC(C(=O)Nc1cccc2c(=O)n([C@H](C)C(N)=O)ccc12)C1CCCCCC1 (stereo partly shown) [Compound 600] : value?
> 76%

P2X7 receptor (IL-1β release from THP-1 cells) (Homo sapiens, UniProt Q99572) / inhibition at 0.3 µM / CC(=O)NCCn1ccc2c(NC(=O)CC3CCCCCC3)cccc2c1=O [Compound 611] : value?
51 to 75%

* * *

- TESTED ON: P2X7 receptor (IL-1β release from THP-1 cells) (Homo sapiens, UniProt Q99572)
- TEST: IL-1β release assay in differentiated THP-1 cells stimulated with BzATP (Example 9)
- SETTINGS: released IL-1β as in Example 9, four parameter logistic fit
What pIC50 was measured for each of the following?
Just the number, please; pIC50 means minus log10 of the concentration in mol/L.

Fill in: pIC50 of CC(C)(CO)n1ccc2c(NC(=O)CC34CC5CC(CC(C5)C3)C4)cccc2c1=O is ___
8.42

Fill in: pIC50 of CC(C)[C@H](C(N)=O)n1ccc2c(NC(=O)CC34CC5CC(C)(CC(C)(C5)C3)C4)cccc2c1=O is ___
8.33

Fill in: pIC50 of C[C@H](CO)N1CCc2c(NC(=O)CC34CC5CC(CC(C5)C3)C4)cccc2C1=O is ___
9.00

Fill in: pIC50 of O=C(CC12CC3CC(CC(C3)C1)C2)Nc1cccc2c(=O)n(C(CO)Cc3c[nH]cn3)ccc12 (centres unmarked) is ___
8.89

Fill in: pIC50 of CC(C(=O)Nc1cccc2c(=O)n([C@H](C)C(N)=O)ccc12)C1CCCCCC1 (some centres unmarked) is ___
7.92

Fill in: pIC50 of NC(=O)[C@@H](CO)n1ccc2c(NC(=O)CC34CC5CC(CC(C5)C3)C4)cccc2c1=O is ___
8.96

Fill in: pIC50 of C[C@@H](CO)N1CCc2c(NC(=O)CC34CC5CC(CC(C5)C3)C4)cccc2C1=O is ___
9.83

Fill in: pIC50 of C[C@H](CO)n1ccc2c(NC(=O)CC3CCCCCC3)cccc2c1=O is ___
8.34

* * *

- TEST: Half-life in human liver microsomes (HLM)
- Type: in vitro ADME
- SETTINGS: human liver microsomes (HLM, HL101); human liver microsomes 0.78 mg/mL, 1 μM compound, NADPH, pH 7.4, 37° C.
VALUE TYPE: half-life at 1 μM (min)
Value expressed in min; do not type the unit.

Fill in: half-life at 1 μM of CC(C)[C@H](C(N)=O)n1ccc2c(NC(=O)CC34CC5CC(C)(CC(C)(C5)C3)C4)cccc2c1=O is ___
39

Fill in: half-life at 1 μM of O=C(CC12CC3CC(CC(C3)C1)C2)Nc1cccc2c1CCN(CC1CCNCC1)C2=O is ___
44.4

Fill in: half-life at 1 μM of O=C(CC12CC3CC(CC(C3)C1)C2)Nc1cccc2c(=O)n(C(CO)Cc3c[nH]cn3)ccc12 (centres unmarked) is ___
91.2

Fill in: half-life at 1 μM of C[C@H](C(N)=O)n1ccc2c(NC(=O)CC3(O)CCCCCC3)cccc2c1=O is ___
45.6

Fill in: half-life at 1 μM of CC(C(=O)Nc1cccc2c(=O)n([C@H](C)C(N)=O)ccc12)C1CCCCCC1 (some centres unmarked) is ___
15

Fill in: half-life at 1 μM of O=C(CC12CC3CC(CC(C3)C1)C2)Nc1cccc2c(=O)n(C(CO)CO)ccc12 is ___
34.8

Fill in: half-life at 1 μM of C[C@H](C(N)=O)n1ccc2c(NC(=O)CC34CC5CC(CC(C5)C3)C4)c(Cl)ccc2c1=O is ___
45.6

Fill in: half-life at 1 μM of CC(CO)n1ccc2c(NC(=O)CC34CC5CC(CC(C5)C3)C4)cccc2c1=O (centres unmarked) is ___
26.4

* * *

- TEST: Pharmacokinetic evaluation following intravenous and oral administration in rats
- Assay type: in vivo
- SETTINGS: rat, plasma; male Sprague-Dawley rats; PO 1 to 5 mg/kg vs IV, AUCinf dose-normalized; mean % F
VALUE TYPE: bioavailability

Fill in: bioavailability of O=C(CC1(O)CCCCCC1)Nc1cccc2c(=O)n(CCO)ccc12 [Compound 520] is ___
26 to 50%

Fill in: bioavailability of C[C@H](C(N)=O)n1ccc2c(NC(=O)CC34CC5CC(CC(C5)C3)C4)c(Cl)ccc2c1=O [Compound 602] is ___
0 to 25%

Fill in: bioavailability of C[C@H](C(N)=O)n1ccc2c(NC(=O)CC34CC5CC(CC(C5)C3)C4)cccc2c1=O [Compound 559] is ___
0 to 25%

Fill in: bioavailability of C[C@@H](C(N)=O)n1ccc2c(NC(=O)CC34CC5CC(CC(C5)C3)C4)cccc2c1=O [Compound 572] is ___
26 to 50%

Fill in: bioavailability of O=C(CC1CCCCCC1)Nc1cccc2c(=O)n(CCO)ccc12 [Compound 544] is ___
0 to 25%

Fill in: bioavailability of C[C@H](C(N)=O)n1ccc2c(NC(=O)CC3CCCCCC3)cccc2c1=O [Compound 558] is ___
0 to 25%

Fill in: bioavailability of C[C@H](C(N)=O)n1ccc2c(NC(=O)CC3(O)CCCCCC3)cccc2c1=O [Compound 555] is ___
26 to 50%

Fill in: bioavailability of CC(C(N)=O)n1ccc2c(NC(=O)CC34CC5CC(CC(C5)C3)C4)cccc2c1=O (centres unmarked) [Compound 530] is ___
0 to 25%

Fill in: bioavailability of CC12CC3CC(C)(C1)CC(CC(=O)Nc1cccc4c(=O)n(CC5CCNCC5)ccc14)(C3)C2 [Compound 518] is ___
0 to 25%

Fill in: bioavailability of O=C(CC12CC3CC(CC(C3)C1)C2)Nc1cccc2c(=O)n(C(CO)CO)ccc12 [Compound 507] is ___
0 to 25%

Fill in: bioavailability of NC(=O)[C@@H](CO)n1ccc2c(NC(=O)CC34CC5CC(CC(C5)C3)C4)cccc2c1=O [Compound 599] is ___
0 to 25%

Fill in: bioavailability of C[C@H](CO)n1ccc2c(NC(=O)CC3CCCCCC3)cccc2c1=O [Compound 606] is ___
0 to 25%

Fill in: bioavailability of C[C@H](CO)N1CCc2c(NC(=O)CC34CC5CC(CC(C5)C3)C4)cccc2C1=O [Compound 526] is ___
0 to 25%

Fill in: bioavailability of CC(C(=O)Nc1cccc2c(=O)n([C@H](C)C(N)=O)ccc12)C1CCCCCC1 (some centres unmarked) [Compound 600] is ___
0 to 25%
